tested target: human MATE1 (Homo sapiens)
Sequence (Q96FL8 1-570): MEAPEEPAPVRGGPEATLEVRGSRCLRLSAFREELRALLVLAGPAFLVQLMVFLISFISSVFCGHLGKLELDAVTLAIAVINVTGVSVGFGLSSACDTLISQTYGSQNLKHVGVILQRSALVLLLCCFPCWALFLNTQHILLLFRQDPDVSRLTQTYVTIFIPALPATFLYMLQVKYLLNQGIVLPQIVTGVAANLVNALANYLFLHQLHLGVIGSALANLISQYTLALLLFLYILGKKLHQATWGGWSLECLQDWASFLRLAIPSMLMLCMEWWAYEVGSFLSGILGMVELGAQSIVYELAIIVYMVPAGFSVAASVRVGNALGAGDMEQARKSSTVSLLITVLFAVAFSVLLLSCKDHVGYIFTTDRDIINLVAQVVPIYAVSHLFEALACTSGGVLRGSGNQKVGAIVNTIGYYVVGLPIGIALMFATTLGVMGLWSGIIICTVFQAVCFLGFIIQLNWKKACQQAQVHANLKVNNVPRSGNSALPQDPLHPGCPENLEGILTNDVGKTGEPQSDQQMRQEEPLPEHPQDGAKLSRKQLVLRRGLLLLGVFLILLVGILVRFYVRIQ
protocol notes: Inhibition of metformin uptake in HEK-293 cells overexpressing hMATE1
assay setup: IC50 for inhibition of hMATE1, metformin 50 μM probe substrate, HEK293-hMATE1
experimental endpoint: pIC50
Value format note: pIC50 is -log10 of concentration (mol/L); just state the number.

QUERY: Entry COc1ccccc1OCCNCC(O)COc1cccc2[nH]c3ccccc3c12 (stereo not shown) [Carvedilol] has what pIC50?
RESULT: 3.99
